Taken from patent US5747235A.

experimental details: oxidation potential E1 by cyclic voltammetry
Format: physicochemical
condition info: Table IV
Structures can show the parent of a compound that is named as a salt.
quantity measured: E1 (V)

{"compound": "CCSCCN(c1ccc(C(=O)O)cc1)C(C)C(=O)O (stereo not shown) [Compound S-11]", "result": "0.55 V"}
{"compound": "CCSCCN(c1ccc(Cl)cc1)C(C)C(=O)O (stereo not shown) [Compound S-12, sodium salt]", "result": "0.51 V"}
{"compound": "CCSCCN(c1cccc(C(N)=O)c1)C(C)C(=O)O (stereo not shown) [Compound S-13]", "result": "0.53 V"}
{"compound": "CCSCCN(c1ccccc1)C(C)C(=O)O (stereo not shown) [Compound S-9, sodium salt]", "result": "0.43 V"}

###

experimental details: Example 4: photographic speed and fog, 365 nm exposure, blue dyed emulsion T-2
Design: unit not given here
condition info: 0.88 x10^-3 mole/mole Ag; dye I 0.91 x10^-3
Procedure: For photographic evaluation, each of the coating strips was exposed for 0.1 sec to a 365 nm emission line of a Hg lamp filtered through a Kodak Wratten filter number 18A and a step wedge ranging in density from 0 to 4 density units in 0.2 density steps. The exposed film strips were developed for 6 min in Kodak Rapid X-ray Developer (KRX). S365, relative sensitivity at 365 nm, was evaluated at a density of 0.2 units above fog. […]
Where a name gives a salt, the structure may show the parent alone.
quantity measured: Fog

{"molecule": "CCSCCN(c1ccc(Cl)cc1)C(C)C(=O)O (stereo not shown) [Compound S-12, sodium salt]", "quantity measured": "Fog", "result": 0.29}
{"molecule": "CCSCCN(c1ccc(C(=O)O)cc1)C(C)C(=O)O (stereo not shown) [Compound S-11]", "quantity measured": "Fog", "result": 0.07}
{"molecule": "CCSCCN(c1ccccc1)C(C)C(=O)O (stereo not shown) [Compound S-9, sodium salt]", "quantity measured": "Fog", "result": 0.63}
{"molecule": "CCSCCN(c1cccc(C(N)=O)c1)C(C)C(=O)O (stereo not shown) [Compound S-13]", "quantity measured": "Fog", "result": 0.14}

###

experimental details: oxidation potential E1 by cyclic voltammetry
Assay type: physicochemical
condition info: Table A; 80%/20% acetonitrile/water, 0.1M lithium perchlorate, 25° C.
quantity measured: Oxidation Potential of X--Y, E1 (V vs SCE)

{"compound": "CCCCN(c1ccc(C(=O)O)cc1)C(C)C(=O)O (stereo not shown)", "quantity measured": "Oxidation Potential of X--Y, E1", "unit name": "V vs SCE", "result": 0.48}
{"compound": "Cn1cc(C(C)(C)C(=O)O)c2ccccc21", "quantity measured": "Oxidation Potential of X--Y, E1", "unit name": "V vs SCE", "result": 0.64}
{"compound": "Cc1ccc(N(CCC(=O)O)C[Si](C)(C)C)cc1", "quantity measured": "Oxidation Potential of X--Y, E1", "unit name": "V vs SCE", "result": 0.30}
{"compound": "CC(C)(Nc1ccccc1)C(=O)O", "quantity measured": "Oxidation Potential of X--Y, E1", "unit name": "V vs SCE", "result": 0.53}
{"compound": "Cc1ccc(N(CC(=O)O)C(C)C(=O)O)cc1 (stereo not shown)", "quantity measured": "Oxidation Potential of X--Y, E1", "unit name": "V vs SCE", "result": 0.46}
{"compound": "CC(C(=O)O)N1c2ccccc2Sc2ccccc21 (stereo not shown)", "quantity measured": "Oxidation Potential of X--Y, E1", "unit name": "V vs SCE", "result": 0.49}
{"compound": "CC(Nc1ccc(C(N)=O)cc1)C(=O)O (stereo not shown)", "quantity measured": "Oxidation Potential of X--Y, E1", "unit name": "V vs SCE", "result": 0.62}
{"compound": "CC(Nc1ccc(C(=O)O)cc1)C(=O)O (stereo not shown)", "quantity measured": "Oxidation Potential of X--Y, E1", "unit name": "V vs SCE", "result": 0.62}
{"compound": "CCCCN(c1ccc(OC)cc1)C(C)C(=O)O (stereo not shown)", "quantity measured": "Oxidation Potential of X--Y, E1", "unit name": "V vs SCE", "result": 0.22}
{"compound": "CC(Nc1ccccc1)C(=O)O (stereo not shown)", "quantity measured": "Oxidation Potential of X--Y, E1", "unit name": "V vs SCE", "result": 0.52}
{"compound": "CN(C)c1ccc(CC(=O)O)cc1", "quantity measured": "Oxidation Potential of X--Y, E1", "unit name": "V vs SCE", "result": 0.53}
{"compound": "O=C(O)COc1ccc(N(CC(=O)O)CC(=O)O)cc1", "quantity measured": "Oxidation Potential of X--Y, E1", "unit name": "V vs SCE", "result": 0.38}
{"compound": "CCN(CC)S(=O)(=O)c1ccc(N(CC(=O)O)C(C)C(=O)O)cc1 (stereo not shown)", "quantity measured": "Oxidation Potential of X--Y, E1", "unit name": "V vs SCE", "result": 0.68}
{"compound": "CN(C)c1ccc(C(C)(O)C(=O)O)cc1 (stereo not shown)", "quantity measured": "Oxidation Potential of X--Y, E1", "unit name": "V vs SCE", "result": 0.51}
{"compound": "COc1ccc(NC(C)C(=O)O)cc1 (stereo not shown)", "quantity measured": "Oxidation Potential of X--Y, E1", "unit name": "V vs SCE", "result": 0.37}
{"compound": "CC(C(=O)O)N(CC(=O)O)c1ccc(C=O)cc1 (stereo not shown)", "quantity measured": "Oxidation Potential of X--Y, E1", "unit name": "V vs SCE", "result": 0.74}
{"compound": "CC(C(=O)O)N(CC(=O)O)c1ccc(S(=O)(=O)O)cc1 (stereo not shown)", "quantity measured": "Oxidation Potential of X--Y, E1", "unit name": "V vs SCE", "result": 0.70}
{"compound": "CCN(CC)c1ccc(C(C)(O)C(=O)O)cc1 (stereo not shown)", "quantity measured": "Oxidation Potential of X--Y, E1", "unit name": "V vs SCE", "result": 0.49}
{"compound": "CCCCN(c1ccc(C)cc1)C(CC(=O)O)C(=O)O (stereo not shown)", "quantity measured": "Oxidation Potential of X--Y, E1", "unit name": "V vs SCE", "result": 0.38}
{"compound": "Cc1ccc(N(CC(=O)O)CC(=O)O)cc1", "quantity measured": "Oxidation Potential of X--Y, E1", "unit name": "V vs SCE", "result": 0.46}
{"compound": "O=C(O)CN(CC(=O)O)c1ccc(Cl)cc1", "quantity measured": "Oxidation Potential of X--Y, E1", "unit name": "V vs SCE", "result": 0.58}
